Where do the numbers come from? From ChEMBL document CHEMBL3877241.

- target or test system: Histone deacetylase 1 (Homo sapiens, UniProt Q13547)
- Sequence (Q13547 whole entry, the tested form may be a part): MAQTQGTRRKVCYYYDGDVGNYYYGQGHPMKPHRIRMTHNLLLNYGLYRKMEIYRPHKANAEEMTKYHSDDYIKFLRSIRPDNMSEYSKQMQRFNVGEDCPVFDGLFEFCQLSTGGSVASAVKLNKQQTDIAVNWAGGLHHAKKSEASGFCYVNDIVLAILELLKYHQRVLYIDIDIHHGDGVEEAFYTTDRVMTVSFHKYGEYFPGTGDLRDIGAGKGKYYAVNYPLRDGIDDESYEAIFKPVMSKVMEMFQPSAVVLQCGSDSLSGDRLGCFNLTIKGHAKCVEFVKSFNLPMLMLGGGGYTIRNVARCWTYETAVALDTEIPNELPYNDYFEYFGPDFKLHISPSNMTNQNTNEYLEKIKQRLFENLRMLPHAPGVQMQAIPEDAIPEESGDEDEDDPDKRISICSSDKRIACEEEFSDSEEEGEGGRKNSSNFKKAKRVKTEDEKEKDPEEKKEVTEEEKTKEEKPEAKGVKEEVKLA
- assay comment: Inhibition of full length human recombinant C-terminal FLAG/His-tagged HDAC1 (1 to 482 residues) expressed in sf21 cells preincubated with enzyme followed by fluorogenic Arg-His-Lys-Lys(Ac)-AMC substrate addition measured after 2 hrs by fluorescence assay
pIC50: −log10 of the molar value.
Is pIC50 at least 6? Then yes. If not, no.

# count of solved cases: 3
Prompt: Check if pIC50 >= 6 (inclusive). Item: O=C(CCCCCCOc1ccc2cc1COC/C=C/COCc1cccc(c1)-c1ccnc(n1)N2)NO
Response: yes

Prompt: Check if pIC50 >= 6 (inclusive). Item: O=C(CCCCCOc1ccc2cc1COC/C=C/COCc1cccc(c1)-c1ccnc(n1)N2)NO
Response: no

Prompt: Check if pIC50 >= 6 (inclusive). Item: O=C(CCCOc1ccc2cc1COC/C=C/COCc1cccc(c1)-c1ccnc(n1)N2)NO
Response: no

Continuing:
Prompt: Check if pIC50 >= 6 (inclusive). Item: O=C(CCCCOc1ccc2cc1COC/C=C/COCc1cccc(c1)-c1ccnc(n1)N2)NO
Response: no

Prompt: Check if pIC50 >= 6 (inclusive). Item: O=C(CCCCCCCOc1ccc2cc1COC/C=C/COCc1cccc(c1)-c1ccnc(n1)N2)NO
Response: no
